Please respond with reported pEC50 for every item in the list.
# test.target: Mineralocorticoid receptor (Homo sapiens)
# Sequence (P08235 whole entry): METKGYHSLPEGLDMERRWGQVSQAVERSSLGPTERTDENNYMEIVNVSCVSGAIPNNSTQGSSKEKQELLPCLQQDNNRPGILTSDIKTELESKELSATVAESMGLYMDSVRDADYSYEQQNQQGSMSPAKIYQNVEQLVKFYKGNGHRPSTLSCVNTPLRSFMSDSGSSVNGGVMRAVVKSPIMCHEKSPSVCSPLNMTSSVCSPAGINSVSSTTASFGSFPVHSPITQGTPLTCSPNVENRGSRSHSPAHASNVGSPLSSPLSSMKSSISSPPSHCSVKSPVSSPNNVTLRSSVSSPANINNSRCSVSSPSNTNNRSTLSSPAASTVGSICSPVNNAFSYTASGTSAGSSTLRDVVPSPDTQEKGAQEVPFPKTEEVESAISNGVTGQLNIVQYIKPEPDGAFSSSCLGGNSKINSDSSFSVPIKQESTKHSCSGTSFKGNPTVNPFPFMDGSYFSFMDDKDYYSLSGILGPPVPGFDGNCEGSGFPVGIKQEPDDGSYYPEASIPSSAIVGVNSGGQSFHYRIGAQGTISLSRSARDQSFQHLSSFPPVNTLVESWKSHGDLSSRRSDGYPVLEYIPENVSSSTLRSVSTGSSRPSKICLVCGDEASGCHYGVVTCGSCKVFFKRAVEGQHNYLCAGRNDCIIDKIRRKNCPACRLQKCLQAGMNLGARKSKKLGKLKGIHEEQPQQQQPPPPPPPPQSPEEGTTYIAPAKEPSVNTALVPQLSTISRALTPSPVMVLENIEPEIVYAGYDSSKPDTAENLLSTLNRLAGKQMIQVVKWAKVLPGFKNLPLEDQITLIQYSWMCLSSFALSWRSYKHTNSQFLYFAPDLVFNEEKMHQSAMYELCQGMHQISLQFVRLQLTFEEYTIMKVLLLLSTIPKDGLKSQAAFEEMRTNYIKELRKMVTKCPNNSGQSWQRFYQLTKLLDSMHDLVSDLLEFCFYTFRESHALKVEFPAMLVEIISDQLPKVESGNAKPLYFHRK
# measurement.description: Agonist activity at mineralocorticoid receptor in human A549 cells
pEC50: −log10 of the molar value.

CC(C)(C(=O)NC(N)=O)[C@@H]1c2ccc(-c3ccc(C(=O)N4CCOCC4)cc3)nc2Oc2c(F)cccc21: < 5.30

Please look at the following compound next.
I would be grateful if you could share the reported pEC50 for CC(C)(C(=O)Nc1nncs1)[C@@H]1c2ccc(-c3ccc(C(=O)N4CCOCC4)cc3)nc2Oc2c(F)cccc21 .
< 5.30

* * *

# measurement.description: Half life in dog liver microsomes
# Assay type: ADME, Canis lupus familiaris
property.label: half-life (h)
Give bare numbers, in h.

I would be grateful if you could share the reported half-life for CC(C)Oc1ccc(-c2ccc3c(n2)Oc2c(F)cccc2[C@@H]3C(C)(C)C(=O)NC(N)=O)cn1 .
1.63

* * *

# measurement.description: Clearance in rat at 1 mg/kg, iv
# Assay type: ADME, organism-based
# Set-up: dose 1 mg/kg, route intravenous
# test.conditions: in vivo
property.label: clearance
Number plus unit, in that order.

I would be grateful if you could share the reported clearance for CC(C)Oc1ccc(-c2ccc3c(n2)Oc2c(F)cccc2[C@@H]3C(C)(C)C(=O)NC(N)=O)cn1 .
20.8 mL/min/kg

* * *

# measurement.description: Oral bioavailability in dog at 5 mg/kg
# Type: ADME, organism-based, Canis lupus familiaris
# test.conditions: in vivo
property.label: bioavailability
Number plus unit, in that order.

I would be grateful if you could share the reported bioavailability for CC(C)Oc1ccc(-c2ccc3c(n2)Oc2c(F)cccc2[C@@H]3C(C)(C)C(=O)NC(N)=O)cn1 .
82%

* * *

# measurement.description: Oral bioavailability in rat at 10 mg/kg
# Assay type: ADME, organism-based
# test.conditions: in vivo
property.label: bioavailability (%)
Give bare numbers, in %.

I would be grateful if you could share the reported bioavailability for CC(C)Oc1ccc(-c2ccc3c(n2)Oc2c(F)cccc2[C@@H]3C(C)(C)C(=O)NC(N)=O)cn1 .
25.7

* * *

# test.target: Glucocorticoid receptor (Homo sapiens, UniProt P04150)
# Sequence (P04150 whole entry): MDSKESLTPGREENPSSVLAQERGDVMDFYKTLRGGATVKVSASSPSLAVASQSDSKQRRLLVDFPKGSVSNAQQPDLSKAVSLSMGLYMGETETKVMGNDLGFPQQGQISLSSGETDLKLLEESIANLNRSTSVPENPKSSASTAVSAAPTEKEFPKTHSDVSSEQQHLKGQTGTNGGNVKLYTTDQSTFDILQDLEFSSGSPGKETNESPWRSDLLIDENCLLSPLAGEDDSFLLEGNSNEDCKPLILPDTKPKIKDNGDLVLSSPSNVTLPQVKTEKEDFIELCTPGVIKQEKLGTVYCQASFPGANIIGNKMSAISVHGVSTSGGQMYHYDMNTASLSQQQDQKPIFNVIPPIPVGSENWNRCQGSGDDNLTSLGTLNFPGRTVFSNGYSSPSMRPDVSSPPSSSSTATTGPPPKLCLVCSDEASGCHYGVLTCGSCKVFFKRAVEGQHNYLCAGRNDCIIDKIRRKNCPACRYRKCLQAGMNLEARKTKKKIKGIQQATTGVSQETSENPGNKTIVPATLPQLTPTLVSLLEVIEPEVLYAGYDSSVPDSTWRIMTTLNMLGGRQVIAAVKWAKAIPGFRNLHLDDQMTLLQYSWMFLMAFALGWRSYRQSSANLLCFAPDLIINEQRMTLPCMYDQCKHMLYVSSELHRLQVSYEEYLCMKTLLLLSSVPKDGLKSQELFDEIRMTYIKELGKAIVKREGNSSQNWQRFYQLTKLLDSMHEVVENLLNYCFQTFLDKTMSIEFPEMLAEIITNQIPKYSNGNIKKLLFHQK
# measurement.description: Agonist activity at glucocorticoid receptor in human HeLa cells assessed as NP-1 transactivation by luciferase reporter gene assay
# Type: cell-based
pEC50: −log10 of the molar value.
Hi all, reminder that labels come from pEC50, split as low: < 7; mid: ≥ 7 and < 8; high: ≥ 8

Answered examples (4):
CC(C)(C(=O)NC(N)=O)[C@H]1c2ccccc2Oc2nc(-c3ccc(C(=O)N4CCCC4)cc3)ccc21: mid
CC(C)(C(=O)NC(=O)C1CCC1)[C@@H]1c2ccc(-c3ccc(C(=O)N4CCOCC4)cc3)nc2Oc2c(F)cccc21: low
CN(C)C(=O)c1ccc(-c2ccc3c(n2)Oc2ccccc2[C@@H]3C(C)(C)C(=O)Nc2nncs2)cc1: low
CC(=O)NC(=O)C(C)(C)[C@@H]1c2ccc(-c3ccc(C(=O)N4CCCC4)cc3)nc2Oc2c(F)cccc21: mid

Class for CC(C)(C(=O)NC(=O)C1CC1)[C@@H]1c2ccc(-c3ccc(C(=O)N4CCOCC4)cc3)nc2Oc2c(F)cccc21 ?
low

Next molecule up: CC(C)(C(=O)NC(N)=O)[C@@H]1c2ccc(-c3ccc(C(=O)N4CCOCC4)cc3)nc2Oc2c(F)cccc21
high

Next molecule up: CC(C)(C(=O)NC(N)=O)[C@@H]1c2ccc(-c3ccc(C(=O)N4CCCC4)cc3)nc2Oc2c(F)cccc21
high

Next molecule up: CC(C)C(=O)NC(=O)C(C)(C)[C@@H]1c2ccc(-c3ccc(C(=O)N4CCOCC4)cc3)nc2Oc2c(F)cccc21
low

Next molecule up: CNC(=O)NC(=O)C(C)(C)[C@@H]1c2ccc(-c3ccc(C(=O)N4CCOCC4)cc3)nc2Oc2c(F)cccc21
low

Next molecule up: CC(=O)NC(=O)C(C)(C)[C@@H]1c2ccc(-c3ccc(C(=O)N(C)C)cc3)nc2Oc2c(F)cccc21
low

Next molecule up: CC(C)(C(=O)NC(=O)NC1CCC1)[C@@H]1c2ccc(-c3ccc(C(=O)N4CCOCC4)cc3)nc2Oc2c(F)cccc21
low
